- ASSAY COMMENT: photoluminescence quantum yield (fraction); solvent given as SMILES
- COND: in ClCCl
photoluminescence quantum yield values for the compounds below.

{"COMPOUND": "COc1cccc(-c2[nH]c(=O)n3c2-c2ccccc2C3=O)c1O", "photoluminescence quantum yield": 0.75}
{"COMPOUND": "c1cnc(-c2c3ccccc3c(-c3ncccn3)c3ccccc23)nc1", "photoluminescence quantum yield": 0.79}
{"COMPOUND": "COC(=O)c1ccc(Oc2ccc3c4c(cccc24)C(=O)N(c2c(C(C)C)cccc2C(C)C)C3=O)cc1", "photoluminescence quantum yield": 0.55}
{"COMPOUND": "COCCOCCOCCOCC(COCCOCCOCCOC)Oc1cc(/C=C/c2ccc(/C=C(\\C#N)c3ccccn3)cc2)c(OC(COCCOCCOCCOC)COCCOCCOCCOC)cc1/C=C/c1ccc(/C=C(\\C#N)c2ccccn2)cc1", "photoluminescence quantum yield": 0.64}
{"COMPOUND": "COc1ccc(C2=C(c3ccc(OC)cc3)c3cccc4c3c(cc3nc5ccccc5nc34)O2)cc1", "photoluminescence quantum yield": 0.48}
{"COMPOUND": "COc1cc2c3c(c4cc(OC)c(OC)c(OC)c4c2c(OC)c1OC)=[N+]1C(=C(c2c(C)cc(C)cc2C)c2cc4c5cc(OC)c(OC)c(OC)c5c5c(OC)c(OC)c(OC)cc5c4n2[B-]1(F)F)C=3", "photoluminescence quantum yield": 0.001}
{"COMPOUND": "COc1ccc(C2=C(C)C3=C(c4c(-c5ccccn5)nc5ccccn45)c4c(C)c(-c5ccc(OC)cc5)c(C)n4[B-](F)(F)[N+]3=C2C)cc1", "photoluminescence quantum yield": 0.416}
{"COMPOUND": "CCN1c2ccc(/C=N/Nc3ccccn3)cc2Sc2cc(/C=N/Nc3ccccn3)ccc21", "photoluminescence quantum yield": 0.37}
{"COMPOUND": "CCCCCCc1ccc(-n2c3[n+](c4c5ccccc5c5ccccc5c42)[B-](C)(C)c2ccccc2-3)cc1", "photoluminescence quantum yield": 0.38}
{"COMPOUND": "COc1ccccc1-c1nc(-c2ccc(C(F)(F)F)cc2)n(-c2ccc(C)cc2)c1-c1ccccc1OC", "photoluminescence quantum yield": 0.27}
{"COMPOUND": "CCCCCCOc1cc(C=O)c(OCCCCCC)cc1C=O", "photoluminescence quantum yield": 0.208}
{"COMPOUND": "CCCCN(CCCC)c1ccc(C#Cc2cc(C#Cc3cc(C(F)(F)F)cc(C(F)(F)F)c3)c(C#Cc3ccc(N(CCCC)CCCC)cc3)cc2C#Cc2cc(C(F)(F)F)cc(C(F)(F)F)c2)cc1", "photoluminescence quantum yield": 0.25}
{"COMPOUND": "Clc1ccc(/C=C/c2ccc(-c3nc4c5cccnc5c5ncccc5c4[nH]3)cc2)cc1", "photoluminescence quantum yield": 0.34}
{"COMPOUND": "CN(c1ccccc1)c1ccc(/C=C2\\C(=O)c3ccccc3S2(=O)=O)cc1", "photoluminescence quantum yield": 0.004}
{"COMPOUND": "COc1cccc(-c2c3ccccc3c3n2[B-](F)(F)[N+]2=Cc4c5ccccc5c(-c5cccc(OC)c5)n4[B-](F)(F)[N+]2=C3)c1", "photoluminescence quantum yield": 0.36}
{"COMPOUND": "CC1=C2C=CC=[N+]2[B-](F)(F)n2cccc21", "photoluminescence quantum yield": 0.88}
{"COMPOUND": "CC(C)[Si](C#Cc1c2cc3ccccc3cc2c(C#Cc2ccccc2)c2cc3ccccc3cc12)(C(C)C)C(C)C", "photoluminescence quantum yield": 0.12}
{"COMPOUND": "CCCCN(CCCC)c1ccc(C#Cc2cc(C#Cc3ccc(N(CCCC)CCCC)cc3)c(C#Cc3cc(C(F)(F)F)cc(C(F)(F)F)c3)cc2C#Cc2cc(C(F)(F)F)cc(C(F)(F)F)c2)cc1", "photoluminescence quantum yield": 0.34}
{"COMPOUND": "CCCCN(CCCC)c1ccc2c#cc3cc4c#cc5ccc(C(F)(F)F)cc5c#cc#cc5cc(C(F)(F)F)ccc5c#cc4cc3c#cc3ccc(N(CCCC)CCCC)cc3c#cc#cc2c1", "photoluminescence quantum yield": 0.35}
{"COMPOUND": "CCN1c2ccc(/C=N/Nc3ccccn3)cc2Sc2cc(-c3cccc4ccccc34)ccc21", "photoluminescence quantum yield": 0.3}
{"COMPOUND": "Cc1ccc(C2=[N+]3C(=Cc4ccc(C)n4[B-]3(F)F)c3ccccc32)[nH]1", "photoluminescence quantum yield": 0.79}
{"COMPOUND": "O=C1c2cccc3c(-n4c5ccccc5c5ccccc54)ccc(c23)C(=O)N1c1ccccc1", "photoluminescence quantum yield": 0.032}
{"COMPOUND": "c1cc(-c2ccc(-n3c4ccccc4c4ccccc43)cc2)c2nsnc2c1", "photoluminescence quantum yield": 0.68}
{"COMPOUND": "Cc1ccc(C(=O)c2c(C)c3ccc4cccc5c6cccc7ccc2c(c76)c3c45)cc1", "photoluminescence quantum yield": 0.039}
{"COMPOUND": "C(S/C=C/c1ccc(/C=C/SC=C2CCCC2)cc1)=C1CCCC1", "photoluminescence quantum yield": 0.021}
{"COMPOUND": "O=Cc1ccc(-c2ccc(-c3nc4ccccc4s3)c(O)c2)s1", "photoluminescence quantum yield": 0.0634}
{"COMPOUND": "Clc1ccc(/C=C/c2cnc3ccccc3n2)cc1", "photoluminescence quantum yield": 0.01}
{"COMPOUND": "c1cc2ccc3cc4cccc5ccc6cc(c1)c2c3c6c54", "photoluminescence quantum yield": 0.24}
{"COMPOUND": "c1ccc(-p2c3ccccc3c3sc4ccccc4c32)cc1 (stereo not drawn)", "photoluminescence quantum yield": 0.24}
{"COMPOUND": "CN(C)c1ccc(/C=C/c2cc(/C=C/c3ccc(N(C)C)cc3)nc(/C=C/c3ccccc3)n2)cc1", "photoluminescence quantum yield": 0.72}
{"COMPOUND": "Cc1cc(C)c(B(c2c(C)cc(C)cc2C)N2c3ccccc3C(C)(C)c3ccccc32)c(C)c1", "photoluminescence quantum yield": 0.9}
{"COMPOUND": "CCC1(CC)c2cc(/C=C/c3ccc(/C=C/c4ccc5c(c4)C(CC)(CC)c4cc(N6c7ccccc7Sc7ccccc76)ccc4-5)cc3)ccc2-c2ccc(N3c4ccccc4Sc4ccccc43)cc21", "photoluminescence quantum yield": 0.33}
{"COMPOUND": "COC(=O)/C=C/C1=CC2=C(c3c(C)cc(C)cc3C)c3cccn3[B-](F)(F)[N+]2=C1", "photoluminescence quantum yield": 0.34}
